Source of measurements: patent US20260216242A1

List of Kd values.
- system: T1, Human ALPP (leucine zipper) (human)
- T1 construct: Whole entry: ALPP fused with a cysteine stabilised leucine zipper and His tag; also called hALPP
- T1 chain: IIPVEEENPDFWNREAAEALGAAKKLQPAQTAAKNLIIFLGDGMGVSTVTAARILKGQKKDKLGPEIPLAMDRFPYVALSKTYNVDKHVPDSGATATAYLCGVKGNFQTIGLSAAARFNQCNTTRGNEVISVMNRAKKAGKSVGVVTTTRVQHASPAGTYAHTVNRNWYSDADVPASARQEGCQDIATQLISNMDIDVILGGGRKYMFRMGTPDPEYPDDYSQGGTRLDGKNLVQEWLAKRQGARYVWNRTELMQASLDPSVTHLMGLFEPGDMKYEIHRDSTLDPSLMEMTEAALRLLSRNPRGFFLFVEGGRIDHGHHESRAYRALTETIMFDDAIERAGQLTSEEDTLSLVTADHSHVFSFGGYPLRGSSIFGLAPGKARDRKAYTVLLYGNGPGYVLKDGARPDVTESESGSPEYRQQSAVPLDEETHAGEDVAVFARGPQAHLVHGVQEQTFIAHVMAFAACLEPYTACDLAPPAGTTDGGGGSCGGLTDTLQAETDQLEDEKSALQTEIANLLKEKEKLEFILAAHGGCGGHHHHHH
- assay-info: BLI, antigen immobilised

Example entries begin here.
query: Answer with reported Kd of C05 (VHH, not shown: small tags and cut ends) VHH: QVQLVESGGGLVQAGGSLRLSCAASRRSFSEYAMGWFRQAPGKEREFVAAIGWSGVIEYADSVKGRFTISRDNAKDTVYLQMNSLKPEDTAVYYCAAGLGIRVVSQTPAYWGQGTQVTVSS
result: < 0.01 nM

query: Look up Kd of F12 (VHH, not shown: small tags and cut ends) VHH: QVQLVESGGGLVEAGGSLRLSCAVSGSALSDYNIGWFRQAPGKEREFVARKTWDGSSTKYDDSVKGRFTVSIDNAKNTAYLQMNSLKTEDTAVYYCAAGRYSRVRGWEYDYWGQRTQVTVSS and report it.
result: < 0.01 nM

Next:
query: Query Kd for B01 His (VHH, not shown: small tags and cut ends) VHH: QVQLVESGGGLVQAGGSLRLSCEVTRSPMPIDTMAWYRQAPGRQRELVAIISRSGSTNYADSVKGRFTISRNDTKSTMYKSTMYLKMNTLELEDTGVYYCNAVGLWNGAEYWGQGTQVTVSS
result: 1.18 nM

query: Answer with reported Kd of E10 His (VHH, not shown: small tags and cut ends, also called #265) VHH: QVQLVESGGGLVQAGGSLRLSCAVSGRALSDYNIGWFRQAPGKEREFVARKTWDGSSTRYDDSVKGRFTVSIEDAKNTAYLQMSSLKTEDTAVYYCAAGRYSRARGWEYDYWGQGTQVTVSS
result: < 0.01 nM

query: For the binder D08 (VHH, not shown: small tags and cut ends) VHH: QVHLVESGGGSVQAGGSLRLSCAASGPSLSNYAMGWFRQAPGKEREFVAGISWGGGRTSYTDSVKGRFTISRDNAKNTVYLQMNNLKPEDTGVYYCAGRYGRGRNVEYEYDYWGQGTKVTVSS , give its measured Kd value.
result: < 0.01 nM

query: Given H10 (VHH, not shown: small tags and cut ends) VHH: QVQLVESGGGSVQTGGSLRLSCAASGPSLSNYAMGWFRQAPGKEREFVAGISWGGGRTNYLDSVKGRFTISRDNAKNTMYLQMNSLKPEDAAVYYCAGRYGRGRDVEYEYDYWGQGTQVTVSS , respond with its Kd.
result: 0.19 nM

query: Supply Kd value. Item: D11 (VHH, not shown: small tags and cut ends) VHH: QVQLVESGGGSVQAGGSLRLSCAASGPSLSNYAMGWFRQAPGKEREFVAGISWGGGRTSYTDSVKGRFTISRDNAKNTVYLQMNNLKPEDTGVYYCAGRYGRGRNVEYEYDYWGQGTMVTVSS
result: < 0.01 nM

query: Look up and state reported Kd for A05 His (VHH, not shown: small tags and cut ends, also called #249) VHH: QVQLVESGGGLVQAGASLTLSCAASGFTFNTRSIVWFRQAPGKEREAVSCISKVAGSTYYGDSVQGRFSSSTDNAKNTVSLQMNSLKPEDTAVYTCAASFAPNCYGWSVAANMEYWGEGTMVTVSS
result: < 0.01 nM
